# study.system: UniProt:Q8TDV5
# protocol.text: Human Tet-Inducible cAMP Assay (hEC50, Table 1)
pEC50: −log10 of the molar value.
If the reported pEC50 equals or exceeds 7, assign Fulfilled. If not, assign Not fulfilled.

compound: CC(C)(C)OC(=O)N1CCC(N2C(=O)COc3c(Nc4ccc(S(C)(=O)=O)cc4F)ncnc32)CC1 [Example 26]
label.class: Fulfilled
--
compound: Cc1ncccc1Oc1ncnc2c1OCCN2C1CCN(C(=O)OC(C)C)CC1 [Example 25]
label.class: Not fulfilled
--
compound: CC(C)(C)OC(=O)N1CCC(N2CCCOc3c(Nc4c(Cl)cncc4Cl)ncnc32)CC1 [Example 89]
label.class: Fulfilled
--
compound: CC(C)(C)OC(=O)N1CCC(N2CCOc3c(Nc4ccc(S(C)(=O)=O)cc4Cl)ncnc32)CC1 [Example 7]
label.class: Fulfilled
--
compound: Cc1ccc(Nc2ncnc3c2OCC(=O)N3C2CCN(C(=O)OC(C)(C)C)CC2)cn1 [Example 69]
label.class: Not fulfilled
--
compound: COc1ccc(Nc2ncnc3c2OCCN3C2CCN(C(=O)OC(C)C)CC2)cc1 [Example 128]
label.class: Not fulfilled
--
compound: CC(C)OC(=O)N1CCC(N2CCOc3c(Nc4ccc(C(N)=O)cc4Cl)ncnc32)CC1 [Example 49]
label.class: Not fulfilled
--
compound: Cc1ncccc1Nc1cccc2c1OCCN2C1CCN(C(=O)OC(C)(C)C)CC1 [Example 76]
label.class: Not fulfilled

---

# study.system: GPR119 G protein-coupled receptor (Homo sapiens, UniProt Q8TDV5)
# Construct: expressed in transfected cells; host or cells: Flp-In-T-REx 293 cells, tetracycline induced
# Sequence (Q8TDV5 whole entry): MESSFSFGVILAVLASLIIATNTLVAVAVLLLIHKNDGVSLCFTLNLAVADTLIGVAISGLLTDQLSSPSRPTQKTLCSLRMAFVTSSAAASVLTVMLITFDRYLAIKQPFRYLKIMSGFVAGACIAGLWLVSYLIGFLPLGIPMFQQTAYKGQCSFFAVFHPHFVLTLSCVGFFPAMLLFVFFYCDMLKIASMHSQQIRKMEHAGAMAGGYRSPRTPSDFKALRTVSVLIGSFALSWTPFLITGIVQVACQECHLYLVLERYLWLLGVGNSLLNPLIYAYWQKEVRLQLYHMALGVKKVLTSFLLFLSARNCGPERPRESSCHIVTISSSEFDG
# protocol.text: Human Tet-Inducible cAMP Assay (hEC50, Table 1)
# Assay type: cell-based
# Set-up: scale not given here
# recorded.conditions: IA not defined
Recorded IA values for a group of molecules are listed next.

molecule: CC(C)OC(=O)N1CCC(N2C(=O)CCc3c(Nc4ccc(S(C)(=O)=O)cc4F)ncnc32)CC1 [Example 118]
IA: 0.63
--
molecule: CC(C)(C)OC(=O)N1CCC(N2C(=O)COc3c(Nc4ccc(S(C)(=O)=O)cc4F)ncnc32)CC1 [Example 26]
IA: 0.51
--
molecule: COC(=O)c1ccc(Nc2ncnc3c2OCCN3C2CCN(C(=O)OC(C)(C)C)CC2)c(Cl)c1 [Example 45]
IA: 0.63
--
molecule: Cc1ccc(Nc2ncnc3c2OCC(=O)N3C2CCN(C(=O)OC(C)(C)C)CC2)cn1 [Example 69]
IA: 0.35
--
molecule: CC(C)(OC(=O)N1CCC(N2CCOc3c(Nc4ccc(S(C)(=O)=O)cc4F)ncnc32)CC1)C(F)(F)F [Example 143]
IA: 0.41
--
molecule: CC(C)(C)OC(=O)N1CCC(N2CCOc3c(Nc4ccc(C(N)=O)cc4Cl)ncnc32)CC1 [Example 47]
IA: 0.78
--
molecule: Cc1ncccc1Oc1ncnc2c1OCCN2C1CCN(C(=O)OC(C)C)CC1 [Example 25]
IA: 0.27
--
molecule: CC(C)(C)OC(=O)N1CCC(N2CCCOc3c(Nc4ccncc4)ncnc32)CC1 [Example 100]
IA: 0.53

---

# study.system: GPR119 G protein-coupled receptor (Homo sapiens)
# Construct: expressed in transfected cells; host or cells: Flp-In-T-REx 293 cells, tetracycline induced
# protocol.text: Human Tet-Inducible cAMP Assay (hEC50, Table 1)
# Assay type: cell-based
# Set-up: scale not given here
# recorded.conditions: IA not defined
Counter-ions that a name gives are not always drawn.
Each entry gets f if its IA stays under 0.5, and t if its IA is 0.5 or above.

molecule: COc1ccc(Nc2ncnc3c2OCCN3C2CCN(C(=O)OC(C)C)CC2)cc1
label.class: t
--
molecule: CC(C)OC(=O)N1CCC(N2CCOc3c(Nc4ccncc4Cl)ncnc32)CC1
label.class: f
--
molecule: Cc1ncccc1Nc1cccc2c1OCCN2C1CCN(C(=O)OC(C)(C)C)CC1
label.class: f
--
molecule: CS(=O)(=O)c1ccc(Nc2ncnc3c2OCCN3C2CCN(C(=O)OCC(F)(F)F)CC2)c(F)c1 [Example 145, TFA salt]
label.class: t
--
molecule: CS(=O)(=O)c1ccc(Nc2ncnc3c2OCCN3C2CCN(c3nc4ccccc4s3)CC2)c(F)c1
label.class: f
--
molecule: CC(C)OC(=O)N1CCC(N2CCOc3c(Nc4ccc(C(N)=O)cc4Cl)ncnc32)CC1
label.class: t
--
molecule: CC(C)OC(=O)N1CCC(N2CCOc3c(Nc4ccc5c(c4)OCO5)ncnc32)CC1
label.class: f
--
molecule: Cc1cc(C#N)ccc1Nc1ncnc2c1OCCN2C1CCN(C(=O)OC(C)C)CC1
label.class: t
--
molecule: CC(C)(C)OC(=O)N1CCC(N2CCCOc3c(Nc4c(Cl)cncc4Cl)ncnc32)CC1
label.class: t
--
molecule: CCC(C)OC(=O)N1CCC(N2CCOc3c(Nc4ccc(S(C)(=O)=O)cc4F)ncnc32)CC1 (racemic) [Example 146, TFA salt]
label.class: t
--
molecule: CC(C)OC(=O)N1CCC(N2C(=O)COc3c(Nc4cccnc4Cl)ncnc32)CC1
label.class: t
--
molecule: CC(C)(C)OC(=O)N1CCC(N2CCOc3c(Nc4ccc(-n5ccnc5)cc4Cl)ncnc32)CC1
label.class: t
--
molecule: CC(C)(C)OC(=O)N1CCC(N2CCOc3c(Nc4ccc(S(C)(=O)=O)cc4Cl)ncnc32)CC1
label.class: t
--
molecule: COc1ccc(Nc2ncnc3c2OCCN3C2CCN(C(=O)OC(C)C)CC2)c(F)c1
label.class: f
--
molecule: CC(C)(C)OC(=O)N1CCC(N2CCOc3c(Nc4c(Cl)cncc4Cl)ncnc32)CC1
label.class: t
--
molecule: Cc1ccc(Nc2ncnc3c2OCC(=O)N3C2CCN(C(=O)OC(C)C)CC2)cn1
label.class: f

---

# study.system: GPR119 G protein-coupled receptor (Homo sapiens, UniProt Q8TDV5)
# protocol.text: Human Tet-Inducible cAMP Assay (hEC50, Table 1)
pEC50: −log10 of the molar value.

smiles.entry: CS(=O)(=O)c1ccc(Nc2ncnc3c2OCCN3C2CCN(c3nc4ccccc4s3)CC2)c(F)c1
pEC50: 6.70

smiles.entry: CC(C)(C)OC(=O)N1CCC(N2CCOc3c(Nc4ccc(-n5ccnc5)cc4Cl)ncnc32)CC1
pEC50: 7.89

smiles.entry: CC(C)OC(=O)N1CCC(N2CCOc3c(Nc4ccncc4Cl)ncnc32)CC1
pEC50: 6.74

smiles.entry: Cc1ccc(Nc2ncnc3c2OCC(=O)N3C2CCN(C(=O)OC(C)C)CC2)cn1
pEC50: 5.07

---

Catalogue of log10 EC50 values
# study.system: GPR119 G protein-coupled receptor (Homo sapiens)
# protocol.text: Human Tet-Inducible cAMP Assay (hEC50, Table 1)
Counter-ions that a name gives are not always drawn.
metric: log10 EC50 (log10 of the value in nM)

compound: CC(C)OC(=O)N1CCC(N2C(=O)CCc3c(Nc4ccc(S(C)(=O)=O)cc4F)ncnc32)CC1
study.system: GPR119 G protein-coupled receptor (Homo sapiens)
measured.number: 2.25

compound: CS(=O)(=O)c1ccc(Nc2ncnc3c2OCCN3C2CCN(C(=O)OCC(F)(F)F)CC2)c(F)c1 [Example 145, TFA salt]
study.system: GPR119 G protein-coupled receptor (Homo sapiens)
measured.number: 1.06

compound: COc1ccc(Nc2ncnc3c2OCCN3C2CCN(C(=O)OC(C)C)CC2)c(F)c1
study.system: GPR119 G protein-coupled receptor (Homo sapiens)
measured.number: 2.27

compound: COC(=O)c1ccc(Nc2ncnc3c2OCCN3C2CCN(C(=O)OC(C)(C)C)CC2)c(Cl)c1
study.system: GPR119 G protein-coupled receptor (Homo sapiens)
measured.number: 2.20

compound: CC(C)(OC(=O)N1CCC(N2CCOc3c(Nc4ccc(S(C)(=O)=O)cc4F)ncnc32)CC1)C(F)(F)F
study.system: GPR119 G protein-coupled receptor (Homo sapiens)
measured.number: 0.99

compound: CC(C)(C)OC(=O)N1CCC(N2CCOc3c(Nc4c(Cl)cncc4Cl)ncnc32)CC1
study.system: GPR119 G protein-coupled receptor (Homo sapiens)
measured.number: 1.05

compound: CCC(C)OC(=O)N1CCC(N2CCOc3c(Nc4ccc(S(C)(=O)=O)cc4F)ncnc32)CC1 (racemic) [Example 146, TFA salt]
study.system: GPR119 G protein-coupled receptor (Homo sapiens)
measured.number: 0.93

compound: CC(C)OC(=O)N1CCC(N2CCOc3c(Nc4ccc5c(c4)OCO5)ncnc32)CC1
study.system: GPR119 G protein-coupled receptor (Homo sapiens)
measured.number: 3.53

compound: CC(C)(C)OC(=O)N1CCC(N2CCCOc3c(Nc4ccncc4)ncnc32)CC1
study.system: GPR119 G protein-coupled receptor (Homo sapiens)
measured.number: 3.54

compound: Cc1cc(C#N)ccc1Nc1ncnc2c1OCCN2C1CCN(C(=O)OC(C)C)CC1
study.system: GPR119 G protein-coupled receptor (Homo sapiens)
measured.number: 2.21

compound: CC(C)OC(=O)N1CCC(N2C(=O)COc3c(Nc4cccnc4Cl)ncnc32)CC1
study.system: GPR119 G protein-coupled receptor (Homo sapiens)
measured.number: 3.79

compound: CC(C)(C)OC(=O)N1CCC(N2CCOc3c(Nc4ccc(C(N)=O)cc4Cl)ncnc32)CC1
study.system: GPR119 G protein-coupled receptor (Homo sapiens)
measured.number: 2.21

Cited source for all entries: patent US8513265B2
